- Assay protocol: GSK_TCMDC: Inhibition Frequency Index (IFI). The number of non-kinase HTS assays where a compound showed > 50 % inhibition, expressed as a percentage of the number of such assays in which the compound was tested
- Format: functional
In all, about 13,000 compounds were measured (“IFI”: median about 4, highest 2% from about 17 on). This is one part of a sample in which the highest values are shown more often than they occur.
Parameter measured: IFI (%)
Give your result in % as a bare value.

{"Molecule": "CCCc1cc(=O)[nH]c(-n2nc(C)cc2NC(=O)C(CC)c2ccccc2)n1 (configuration not stated)", "IFI [%]": 18.5}
{"Molecule": "Cc1ccc(Nc2nccc(NCC(O)c3cccc(C)c3)n2)cc1 (configuration not stated)", "IFI [%]": 18.4}
{"Molecule": "Cc1cc(Nc2ccc(O)cc2)nc2cc(O)ccc12", "IFI [%]": 3.85}

Answer with reported IFI of CC(C)c1ccc(CN2CCC(NC(=O)c3ccc(-c4cccc(Cl)c4)s3)CC2)cc1
12.1

Answer with reported IFI of CCCc1cc(=O)[nH]c(-n2nc(C)cc2NC(=O)CC(c2ccccc2)c2ccccc2)n1
12.2

----------
- Assay protocol: GSK_TCMDC: Inhibition Frequency Index (IFI). The number of non-kinase HTS assays where a compound showed > 50 % inhibition, expressed as a percentage of the number of such assays in which the compound was tested
- Assay type: functional
The full ranking holds about 13,000 compounds; the median of “IFI” is about 4, and the highest 2% start at about 17. The entries come from a sample that favours the highest values as a whole.
Parameter measured: IFI (%)
Give your result in % as a bare value.

Answer with reported IFI of COc1cccc2c(NN=Cc3cccc(F)c3)ccnc12
2.99

----------
- Assay protocol: GSK_TCMDC: Inhibition Frequency Index (IFI). The number of non-kinase HTS assays where a compound showed > 50 % inhibition, expressed as a percentage of the number of such assays in which the compound was tested
- Type: functional
Whole data set: some 13,000 compounds, median “IFI” near 4, cut for the highest 2% near 17. The sample as a whole holds a higher share of the highest values than the screen did.
# note: exactly 3% is not below, so it is not fulfilled; use fulfilled for IFI strictly under it

# count of solved cases: 3
{"Compound": "Cc1[nH]c(C)c(-c2ccc(OCCCc3ccccn3)cc2)c(=O)c1Br", "Class name": "fulfilled"}
{"Compound": "CCCCN(C(=O)c1ccccc1C)c1nnc(-c2ccccc2C)s1", "Class name": "fulfilled"}
{"Compound": "O=C(/C=C/c1ccc(Cl)c(Cl)c1)NCCCCCN1CCC(CCNC(=O)/C=C/c2ccc(Cl)c(Cl)c2)CC1", "Class name": "not fulfilled"}

Given the entry COC(=O)c1cccc(CNCc2ccc(-c3ccc(-c4nc5cc(C(F)(F)F)ccc5[nH]4)s3)cc2)c1 , would its reported IFI be below 3%?
not fulfilled

Given the entry Cc1cc(NCCc2ccccc2)nc(NC(=N)Nc2cccc([N+](=O)[O-])c2)n1 , would its reported IFI be below 3%?
not fulfilled

Given the entry Clc1ccc(OCCC2CCN(CCCCCCCN3CCC(CCOc4ccc(Cl)c(Cl)c4)CC3)CC2)cc1Cl , would its reported IFI be below 3%?
not fulfilled

----------
- Assay protocol: GSK_TCMDC: Inhibition Frequency Index (IFI). The number of non-kinase HTS assays where a compound showed > 50 % inhibition, expressed as a percentage of the number of such assays in which the compound was tested
- Type: functional
Whole data set: some 13,000 compounds, median “IFI” near 4, cut for the highest 2% near 17. The entries come from a sample that favours the highest values as a whole.
# IFI per entry
Give your result in % as a bare value.

Some molecules with recorded IFI:
{"Molecule": "COc1ccc(CNCCc2cccs2)cc1-c1cccc(S(=O)(=O)NCCN2CCCC2)c1", "Parameter measured": "IFI", "Value unit": "%", "Obs value": 9.8}
{"Molecule": "Cc1nn(CC(C)C)c2sc(C(=O)Nc3nc(-c4ccccn4)cs3)cc12", "Parameter measured": "IFI", "Value unit": "%", "Obs value": 10}

Answer with reported IFI of COc1ccc(CCN(C)CCCCc2ccc(NC(=O)c3cccc4c(=O)c5cc(F)ccc5sc34)cc2)cc1OC
10

Answer with reported IFI of CC(C)(C)CCN1CCC(CNC(=O)c2cc(-c3cccc(C(F)(F)F)c3)cs2)C1 (centres undefined)
10

All values here come from ChEMBL document CHEMBL1157539.
